tested on: Plasmodium falciparum; experiment: NOVARTIS: Inhibition of Plasmodium falciparum W2 (drug-resistant) proliferation in erythrocyte-based infection assay; format: functional, organism-based; conditions: Plasmodium falciparum, W2; read-out: EC50
Lab note: compare EC50 with 300 nM, writing YES if less and NO if equal or more.

- compound: "CN(c1ccc(Cl)cc1)S(=O)(=O)c1ccc2[nH]cc(C(=O)NCCC3=CCCCC3)c(=O)c2c1"
  group.label: "NO"
- compound: "Cc1ccc(NC(=O)CCCCC(=O)Nc2ccc(C)c(Br)c2)cc1Br"
  group.label: "NO"
- compound: "COc1ccc(NC(=O)Cn2c(C)c(C=O)c3ccccc32)cc1"
  group.label: "NO"
- compound: "N#Cc1c(N)nc(SCC(=O)c2ccc(Cl)cc2)c(C#N)c1-c1ccco1"
  group.label: "NO"
- compound: "O=C(NCC1CCCO1)c1cnc(NCCCn2ccnc2)nc1NCCc1ccccc1 (centres undefined)"
  group.label: "YES"
- compound: "N=c1n(Cc2ccccc2)c2ccccc2n1CC(O)c1ccc(Cl)c(Cl)c1 (centres undefined)"
  group.label: "YES"
- compound: "Cn1c(=O)n(C)c2cc(NC(=O)CCl)ccc21"
  group.label: "NO"
- compound: "O=C(NN=Cc1ccc(O)c(O)c1)/C(=C/c1ccccc1)NC(=O)c1ccccc1"
  group.label: "NO"
- compound: "NC(=O)c1ccc2[nH]c3c(c2c1)CCCC3"
  group.label: "NO"
- compound: "N#Cc1c2c(c(N3CCN(c4ccccn4)CC3)n3c1nc1ccccc13)CCC2"
  group.label: "NO"
- compound: "COc1ccccc1NC1=CC(=NS(=O)(=O)c2ccccc2)c2ccccc2C1=O"
  group.label: "YES"
- compound: "N=c1c2c(n(Cc3ccc([N+](=O)[O-])cc3)c3c1CCC3)CCCC2"
  group.label: "YES"
- compound: "COc1cc(C2Nc3ccc4ccccc4c3C3=C2C(=O)CC(C)(C)C3)ccc1Oc1ccc([N+](=O)[O-])cc1C(F)(F)F (centres undefined)"
  group.label: "YES"
- compound: "CN(C)CCN1CCN(c2cccc(-c3cccc4cccnc34)n2)CC1"
  group.label: "YES"

----------
experiment: NOVARTIS: Cytotoxicity against human hepatocellular carcinoma cell line (Huh7); type: toxicity, cell-based, Huh-7; conditions: Huh7 cells (hepatocellular carcinoma cell line)
Listed here are molecules together with their documented CC50.
quantity: CC50

- molecule: "C=CC(C)(CCC=C(C)C)c1ccc2c3c(c[nH]c13)CC(CO)NC(=O)C(C(C)C)N2C (centres undefined)"
  value.observed: "> 10 µM"
- molecule: "CC1=CC(=O)OC[C@]23C[C@H](O)C(C)=C[C@H]2O[C@@H]2C[C@@H](OC(=O)C=CC=CC(=O)OCC1)[C@@]3(C)[C@]21CO1"
  value.observed: "0.0837 µM"
- molecule: "CC1CCCCN1CCCNc1ncc(C(=O)NCC2CCCO2)c(NCCc2ccccc2)n1 (centres undefined)"
  value.observed: "> 10 µM"
- molecule: "O=C(NCCCCNC(=O)Nc1cccc(C2=NCCN2)c1)Nc1cccc(C2=NCCN2)c1"
  value.observed: "> 10 µM"
- molecule: "C=CCn1cc(C=NNc2nc3ccccc3[nH]2)c2ccccc21"
  value.observed: "18.4 µM"
- molecule: "COc1ccccc1N1CCN(C2CCN(C3CCC(c4ccccc4)CC3)CC2)CC1 (centres undefined)"
  value.observed: "20.2 µM"
- molecule: "Cc1ccc(S(=O)(=O)NC(Cc2ccccc2)C(=O)N2CCC(C3CCN(C(=O)c4ccc([N+](=O)[O-])o4)CC3)CC2)cc1 (centres undefined)"
  value.observed: "> 10 µM"
- molecule: "CC12CCC(CN(CC(O)Cn3c4ccc(Br)cc4c4cc(Br)ccc43)C1)C2(C)C (centres undefined)"
  value.observed: "> 100 µM"
- molecule: "N#C/C(=C\\c1ccccc1OCc1ccc(Cl)cc1Cl)c1nc2ccccc2[nH]1"
  value.observed: "> 10 µM"
- molecule: "Cc1ccc(-c2nc(CS(=O)(=O)CC(=O)NC3CCC(C)CC3)c(C)o2)cc1 (centres undefined)"
  value.observed: "> 10 µM"
- molecule: "Cn1c(=O)c(Cl)c2c3c(c(Cl)ccc31)C(=O)c1ccccc1-2"
  value.observed: "> 10 µM"
- molecule: "C=CCc1cccc(C=NNc2nc3ccccc3[nH]2)c1O"
  value.observed: "> 100 µM"
- molecule: "O=C(CCl)Nc1ccc2c(c1)OCO2"
  value.observed: "20.3 µM"
- molecule: "CCOc1ccccc1C1NC(=O)NC(C)=C1C(=O)OCC(F)(F)C(F)(F)F (centres undefined)"
  value.observed: "> 10 µM"
- molecule: "CCOc1ccc(C(=O)C(CCC(C[N+]2(C)CCCCCC2)C(=O)c2ccc(OCC)cc2)C[N+]2(C)CCCCCC2)cc1 (centres undefined)"
  value.observed: "> 100 µM"
- molecule: "COc1cc(OC)nc(CSc2ccc(NC(=O)CCl)cc2)n1"
  value.observed: "> 10 µM"
- molecule: "CC(=O)N1CCN(c2ccc(NC(=S)NC(=O)c3ccc(C)cc3)cc2)CC1"
  value.observed: "> 95.7 µM"
- molecule: "CCOC(=O)C1=C(C)N=c2sc(=Cc3ccccc3OCc3ccccc3)c(=O)n2C1c1ccccc1OC(C)C (centres undefined)"
  value.observed: "> 100 µM"
- molecule: "CCCCC(CC)C(=O)N(C)CCCNc1ccnc2cc(Cl)ccc12 (centres undefined)"
  value.observed: "> 9.26 µM"
- molecule: "CCC(C)OC(=O)C1=C(C)NC2=C(C(=O)CC(c3ccc(OC)cc3)C2)C1c1ccc(O)cc1 (centres undefined)"
  value.observed: "> 100 µM"
- molecule: "Cc1ccc(-c2c3c(nc4sc(C(=O)Nc5ccc(F)cc5)c(N)c24)CCC3)cc1"
  value.observed: "> 100 µM"
- molecule: "COc1ccc(-c2csc3ncn(N)c(=O)c23)cc1"
  value.observed: "> 10 µM"
- molecule: "COc1ccc(N2C(=O)[C@@H]3C[C@H]2CN3C(=O)c2cccc(Cn3nc(C)cc3C)c2)cc1Cl"
  value.observed: "> 3.8 µM"
- molecule: "Cc1noc(C)c1S(=O)(=O)N(Cc1ccccc1)CC(O)CN1CCC(NC(=O)Cc2cccs2)C1 (centres undefined)"
  value.observed: "> 10 µM"
- molecule: "CCCOC(=O)C1=C(C)NC2=C(C(=O)CC(c3ccc(Cl)cc3)C2)C1c1ccccc1F (centres undefined)"
  value.observed: "> 100 µM"
- molecule: "Nc1cccc(C(=O)Nc2ccc(Oc3cccc(Oc4ccc(NC(=O)c5cccc(N)c5)cc4)c3)cc2)c1"
  value.observed: "> 100 µM"
- molecule: "CC(=O)Nc1ccc(-c2nc3c4ccccc4c4ccc(I)cc4c3[nH]2)cc1"
  value.observed: "> 100 µM"
- molecule: "Oc1ccc(Br)cc1C=NNc1nc2ccccc2[nH]1"
  value.observed: "54 µM"
- molecule: "COc1cc(C(=O)NC(C)C)ccc1OC1CCN(CC(c2ccccc2)c2ccccc2)CC1"
  value.observed: "> 100 µM"
- molecule: "Cn1c(=O)n(Cc2ccccc2)c(=O)c2c1nc(SCC(=O)Nc1ccccc1)n2Cc1ccccc1"
  value.observed: "> 100 µM"
- molecule: "O=C(NCc1ccccc1)c1cnc(NCCCN2CCCC2)nc1NCC1CCCCC1"
  value.observed: "> 10 µM"
- molecule: "O=C(Cc1cccs1)N1CCN(c2ccccn2)CC1"
  value.observed: "> 100 µM"
- molecule: "CN(C)c1cccc(Nc2cc(-c3ccc(CC(N)C(=O)O)cc3)nc3ccnn23)c1 (centres undefined)"
  value.observed: "> 10 µM"
- molecule: "CCC(c1nc2ccccc2c(=O)n1-c1cccc(C)c1)N(Cc1ccccc1)C(=O)Nc1c(C(C)C)cccc1C(C)C (centres undefined)"
  value.observed: "> 100 µM"

----------
test: NOVARTIS: Cytotoxicity against human hepatocellular carcinoma cell line (Huh7); format: toxicity, cell-based, Huh-7; details: Huh7 cells (hepatocellular carcinoma cell line)
quantity: CC50

- compound: "O=C(NC1CC1)C1CCN(c2cccc3c2C(=O)N(Cc2cccc(C(F)(F)F)c2)C3=O)CC1"
  value.observed: "> 100 µM"
- compound: "CN(C)CCNC(=O)COc1ccc(-c2nc3ccccc3s2)cc1CN(C)C"
  value.observed: "> 10 µM"
- compound: "CCOC(=O)C(Cc1ccc(O)cc1)NC1=CC(=O)C(=O)c2ccccc21 (centres undefined)"
  value.observed: "> 100 µM"
- compound: "O=C(NNC(=O)c1cccc(F)c1)C(=O)N1CCOCC1"
  value.observed: "> 10 µM"
- compound: "CCCN1CCC(N2C[C@@H](NC3CCCCCCC3)C[C@H]2C(=O)NCCc2ccc3c(c2)OCO3)CC1"
  value.observed: "> 10 µM"
- compound: "COc1ccc(CCNC(=O)c2cc(S(=O)(=O)N3CCC4(CC3)OCCO4)ccc2F)cc1OC"
  value.observed: "> 10 µM"
- compound: "CCc1ccc2c(c1)c1nnc(SCC(=O)NCCOC)nc1n2C"
  value.observed: "> 10 µM"
- compound: "CC(NCc1ccccc1)c1cc(Cl)ccc1O (centres undefined)"
  value.observed: "73.3 µM"
- compound: "CC(C)(C)OCCN(CC(O)CN(Cc1ccccc1)C(=O)NC(c1ccccc1)c1ccccc1)S(=O)(=O)c1ccccc1 (centres undefined)"
  value.observed: "> 10 µM"
- compound: "CO[C@H]1C[C@H](C)Cc2cc(O)cc(c2)NC(=O)C(C)=CCC[C@H](OC)[C@@H](OC(N)=O)C(C)=CC(C)[C@H]1O (some centres undefined)"
  value.observed: "> 10 µM"
- compound: "CSc1nc(N)nc(SC2C=CCCC2)c1C#N (centres undefined)"
  value.observed: "> 100 µM"
- compound: "N#Cc1c(N)n(CCc2ccc(Cl)cc2Cl)c2nc3ccccc3nc12"
  value.observed: "33.4 µM"
- compound: "Nc1cc(C(=O)Nc2ccc(C3=NCCCN3)cc2)ccc1C(=O)Nc1ccc(C2=NCCCN2)cc1"
  value.observed: "> 100 µM"
- compound: "Cc1c(Cl)cccc1NC(=S)N(CCCN(C)c1ccccc1)Cc1cccn1Cc1ccc(Cl)cc1"
  value.observed: "> 100 µM"
- compound: "CCCN(CCC)C(=O)Cn1ccc(=N)c2ccccc21"
  value.observed: "> 100 µM"
- compound: "COc1nccnc1NS(=O)(=O)c1ccc(NC(=O)c2cc3ccccc3oc2=O)cc1"
  value.observed: "> 10 µM"
- compound: "CN(CCCNc1ccnc2cc(Cl)ccc12)C(=O)COCc1ccccc1"
  value.observed: "> 10 µM"
- compound: "O=C(Nc1ccc(-c2cnc(-c3ccc(NC(=O)c4cccc([N+](=O)[O-])c4)cc3)nc2)cc1)c1cccc([N+](=O)[O-])c1"
  value.observed: "> 10 µM"
- compound: "O=C(c1ccncc1)N1CCN(Cc2ccc3c(c2)OCO3)CC1"
  value.observed: "> 10 µM"
- compound: "COc1ccc(CCN2C(=O)N(CCN(C)C)C(=O)C23CCN(Cc2ccc(O)cc2)CC3)cc1"
  value.observed: "78.5 µM"
- compound: "Cc1oc2c(c1C(=O)NC1CCS(=O)(=O)C1)C(=O)c1ccccc1C2=O (centres undefined)"
  value.observed: "2.4 µM"
- compound: "COCCN1Cc2cccc(C(=O)Nc3ccc4c(c3)OCCO4)c2C1=O"
  value.observed: "> 10 µM"
- compound: "COc1cc(C=NNc2nc3cc(Cl)ccc3[nH]2)cc(OC)c1OC"
  value.observed: "> 10 µM"
- compound: "CC(C)(C)CC(=O)NCc1ccc(OC2CCN(CC(c3ccccc3)c3ccccc3)CC2)cc1"
  value.observed: "> 10 µM"
- compound: "Cc1ccccc1N1C(=O)N(c2ccccc2)C2CS(=O)(=O)CC21 (centres undefined)"
  value.observed: "> 10 µM"
- compound: "C=CC1CN2CCC1CC2C(O)c1ccnc2ccc(OC)cc12 (centres undefined)"
  value.observed: "82.5 µM"
- compound: "CCCCOc1ccc(C(O)C(CN2CCCCC2)c2ccccc2)cc1 (centres undefined)"
  value.observed: "39.3 µM"
- compound: "CCc1c(C#N)c(N)nc(SCC(=O)c2ccc(C)cc2)c1C#N"
  value.observed: "> 100 µM"
- compound: "CCC(CO)Nc1nccnc1-c1ccccc1Oc1ccccc1 (centres undefined)"
  value.observed: "> 100 µM"
- compound: "O=C(NC(CN1CCCC1)c1ccccc1)C1CCCCN1S(=O)(=O)c1ccccc1 (centres undefined)"
  value.observed: "> 10 µM"
- compound: "C=CCNC(=O)c1cc2c(=O)n3cccc(C)c3nc2n(CCc2ccccc2)c1=N"
  value.observed: "> 100 µM"
- compound: "CC(CC(=O)Oc1ccccc1-c1nc2ccccn2c1NC(C)(C)CC(C)(C)C)CC(C)(C)C (centres undefined)"
  value.observed: "0.796 µM"
- compound: "CC1(C)C2CCC1(C)C(NCc1ccccc1O)C2 (centres undefined)"
  value.observed: "48.6 µM"
- compound: "Cc1cc(O)ccc1-c1cnc2ccccc2n1"
  value.observed: "> 10 µM"
- compound: "COc1cc(NCCCC(C)Nc2ccnc3cc4ccccc4cc23)c2ncccc2c1 (centres undefined)"
  value.observed: "2.47 µM"
- compound: "CCCNC1=C(N(C(C)=O)c2ccc(C)cc2)C(=O)c2ccccc2C1=O"
  value.observed: "4.33 µM"
- compound: "NC1=NC(c2ccccc2)N(c2ccccc2)C(N)=N1 (centres undefined)"
  value.observed: "> 100 µM"
- compound: "Oc1ccc(-c2ccc(F)cc2)cc1CNCCCn1ccnc1"
  value.observed: "> 10 µM"
- compound: "COc1ccc(OC)c(-c2ccc(O)c(CN3CCCC(C)C3)c2)c1 (centres undefined)"
  value.observed: "61 µM"
